experimentalSystem: T1, human RGMa (human, UniProt Q96B86 48-422, limits assumed)
T1 construct: also called hRGMa; h RGMa
T1 sequence (looked up): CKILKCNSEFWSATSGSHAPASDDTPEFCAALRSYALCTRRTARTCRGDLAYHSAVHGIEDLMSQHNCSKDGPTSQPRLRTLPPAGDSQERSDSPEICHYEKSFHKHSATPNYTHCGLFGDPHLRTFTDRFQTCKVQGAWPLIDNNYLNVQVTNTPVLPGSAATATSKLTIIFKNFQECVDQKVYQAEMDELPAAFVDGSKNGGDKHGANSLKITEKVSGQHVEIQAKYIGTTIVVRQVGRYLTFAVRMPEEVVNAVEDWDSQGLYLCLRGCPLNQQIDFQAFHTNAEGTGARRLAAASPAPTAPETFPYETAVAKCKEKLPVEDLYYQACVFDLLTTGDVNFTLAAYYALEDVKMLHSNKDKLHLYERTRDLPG
methodNotes: BIAcore; Ab captured via anti-hIgG Fc on CM5 chip, antigen injected; 1:1 Langmuir fit
measuredAttribute: pKd
# pKd = -log10(concentration in molar units)

For record RGMA-h5F9pJP297/pJP298 hIgG1/K mut (antibody, V domains shown, Tested as IgG; also called h5F9.AM8; H5F9AM.8) VH: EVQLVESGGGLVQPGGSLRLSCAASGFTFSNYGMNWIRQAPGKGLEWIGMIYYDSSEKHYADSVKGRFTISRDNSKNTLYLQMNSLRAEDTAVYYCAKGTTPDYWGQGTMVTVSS VL: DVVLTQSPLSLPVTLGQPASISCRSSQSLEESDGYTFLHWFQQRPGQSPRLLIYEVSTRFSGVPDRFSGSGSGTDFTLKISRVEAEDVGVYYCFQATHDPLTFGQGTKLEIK the listed pKd is 10.51
